Just for reference, paper PMC10244618 is where these values come from.

B1: NF2 (merlin) isoform 7, human, full length (507 aa, lacks exons 2-3 = isoform-1 residues 39-121; exon-16 C-terminus), P35240-4 (parent)
chain: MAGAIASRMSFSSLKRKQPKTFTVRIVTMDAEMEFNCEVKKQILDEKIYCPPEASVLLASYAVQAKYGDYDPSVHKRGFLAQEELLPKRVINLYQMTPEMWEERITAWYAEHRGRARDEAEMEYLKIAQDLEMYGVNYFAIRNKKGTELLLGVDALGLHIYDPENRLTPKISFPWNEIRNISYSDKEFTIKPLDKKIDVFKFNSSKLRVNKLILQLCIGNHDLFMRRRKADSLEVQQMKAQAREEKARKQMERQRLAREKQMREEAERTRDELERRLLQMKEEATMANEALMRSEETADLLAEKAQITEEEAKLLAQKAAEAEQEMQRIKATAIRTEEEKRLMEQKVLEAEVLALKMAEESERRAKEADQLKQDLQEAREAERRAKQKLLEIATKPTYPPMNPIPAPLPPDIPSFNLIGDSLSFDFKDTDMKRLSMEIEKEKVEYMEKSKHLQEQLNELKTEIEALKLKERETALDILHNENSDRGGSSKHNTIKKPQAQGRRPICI

- Variants of: B1
- experimentalDetails: reverse yeast two-hybrid deep mutational scan (rY2H-seq): NF2 isoform 7 mutant library as bait mated with wild-type prey strains; selection on medium lacking adenine for non-interacting pairs; NextSeq paired-end sequencing; enrichment vs …
- conditionInfo: with KDM1A (lysine-specific histone demethylase 1A; the table's label AOF2 is a gene synonym of KDM1A), O60341; yeast diploids after mating (RBait_S3 x RPrey_S3), 30 °C, selection for reporter genes on NB agar; human tyrosine kinase ABL2 co-expressed as the active kinase …; HIGHER = WEAKER BINDING (the opposite of display enrichments): higher = stronger loss of interaction: reverse Y2H selects yeast in which bait and prey do NOT interact (growth without adenine), so a …; hits-only table; scale: rY2H score; numbering: uniprot, sequence starts at 1
measuredParameter: enrichment
Numbers only.

Previously resolved entries follow.
# mutationAnnotation, measuredParameter, readoutNumber
rows = [
    ("G419A", "enrichment", 1.44),
    ("L158A", "enrichment", 11),
    ("N165L", "enrichment", 1.81),
    ("R25L", "enrichment", 7.07),
    ("E272K", "enrichment", 1.77),
    ("G157A", "enrichment", 5.01),
    ("P396S", "enrichment", 1.47),
    ("V56L", "enrichment", 1.8),
]

# batch: return enrichment for each of the 2 variants below
1. Y398F
2. A59L

output:
[2.06, 29]

# batch: return enrichment for each of the 5 variants below
1. H159E
2. E444K
3. R293A
4. S55F
5. K318A

output:
1: 1.44; 2: 1.5; 3: 6.57; 4: 3.58; 5: 3.09

# batch: return enrichment for each of the 4 variants below
1. I127E
2. I418A
3. A354L
4. A316E

output:
1: 11.8; 2: 1.5; 3: 3.78; 4: 2.69

# batch: return enrichment for each of the 2 variants below
1. K66E
2. T394A

output:
[3.77, 1.4]

# batch: return enrichment for each of the 6 variants below
1. M446I
2. E121A
3. A140G
4. D162Y
5. L390E
6. I171K

output:
[1.99, 1.59, 1.91, 2.15, 2, 8.42]
